Biological target: T1, full-length human OX40 expressed on HuT78/OX40 cells (human, UniProt P43489 29-277)
T1 sequence: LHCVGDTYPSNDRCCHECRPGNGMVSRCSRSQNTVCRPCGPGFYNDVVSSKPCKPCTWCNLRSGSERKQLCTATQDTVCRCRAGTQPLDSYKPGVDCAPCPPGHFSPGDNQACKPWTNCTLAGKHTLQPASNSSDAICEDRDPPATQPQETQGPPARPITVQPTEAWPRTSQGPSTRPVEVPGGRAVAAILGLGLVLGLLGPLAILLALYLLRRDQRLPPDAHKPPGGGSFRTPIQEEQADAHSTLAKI
Experiment: flow cytometry on live HuT78/OX40 cells; top of fitted curve
observed_property: Top (MFI), Mean
Write down the numeric answer in MFI and omit the unit.

Consider the binder shown here: ch445 (antibody, V domains shown) VH: EVQLQQSGPELVKPGASVKMSCKASGYKFTSYIIHWVKQKPGQGLEWIGYINPYNDGTRYNEKFKGKATLTSDKSSSTAYMEYSSLTSEDSAVYYCARGYYGSSYAMDYWGQGTSVTVSS VL: DIQMTQTTSSLSASLGDRVTISCSASQGISNYLNWYQQKPDGTIKLLIYDTSTLYSGVPSRFSGSGSGTDYFLTISNLEPEDIATYYCQQYSKLPYTFGGGTKLEKK What is its recorded Top (MFI), Mean?
725
